remaining at 5 min, 1 mg/mL values for the molecules below.
Assay: Metabolic stability in human liver microsomes assessed as drug remaining at 1 mg/mL after 5 mins by HPLC
Assay type: ADME, Microsome
Settings: read-out: Stability

- smiles.notation: "C=C(C)[C@@H]1CC[C@]2(C(=O)N3CCC(CCCC(=O)O)CC3)CC[C@]3(C)[C@H](CC[C@@H]4[C@@]5(C)CC[C@H](O)C(C)(C)[C@@H]5CC[C@]43C)[C@@H]12"
  remaining at 5 min, 1 mg/mL [%]: 102
- smiles.notation: "C=C(C)[C@@H]1CC[C@]2(C(=O)NCCCCCCCC(=O)O)CC[C@]3(C)[C@H](CC[C@@H]4[C@@]5(C)CC[C@H](O)C(C)(C)[C@@H]5CC[C@]43C)[C@@H]12"
  remaining at 5 min, 1 mg/mL [%]: 93.4
